# testDescription: Toxicity in Balb/cJ mouse assessed as body weight loss administered once weekly measured every 2 days during compound dosing
# conditionNotes: in vivo
measurementType: MTD at 48 h (mg/kg)

- COc1cccc2c1C(=O)c1c(O)c3c(c(O)c1C2=O)C[C@@](O)(C(=O)CO)C[C@@H]3O[C@H]1C[C@H](N)[C@H](O)[C@H](C)O1: 1

The measured values listed here are drawn from ChEMBL document CHEMBL3997769.
